These measurements were taken from patent US12486290B2.

- System: EGFR L858R (NCI-H3255 cells) (Homo sapiens, UniProt P00533, L858R)
- Construct: NCI-H3255 (harboring EGFR heterozygous L858R mutation); host or cells: NCI-H3255
- Sequence (P00533 25-1210 L858R): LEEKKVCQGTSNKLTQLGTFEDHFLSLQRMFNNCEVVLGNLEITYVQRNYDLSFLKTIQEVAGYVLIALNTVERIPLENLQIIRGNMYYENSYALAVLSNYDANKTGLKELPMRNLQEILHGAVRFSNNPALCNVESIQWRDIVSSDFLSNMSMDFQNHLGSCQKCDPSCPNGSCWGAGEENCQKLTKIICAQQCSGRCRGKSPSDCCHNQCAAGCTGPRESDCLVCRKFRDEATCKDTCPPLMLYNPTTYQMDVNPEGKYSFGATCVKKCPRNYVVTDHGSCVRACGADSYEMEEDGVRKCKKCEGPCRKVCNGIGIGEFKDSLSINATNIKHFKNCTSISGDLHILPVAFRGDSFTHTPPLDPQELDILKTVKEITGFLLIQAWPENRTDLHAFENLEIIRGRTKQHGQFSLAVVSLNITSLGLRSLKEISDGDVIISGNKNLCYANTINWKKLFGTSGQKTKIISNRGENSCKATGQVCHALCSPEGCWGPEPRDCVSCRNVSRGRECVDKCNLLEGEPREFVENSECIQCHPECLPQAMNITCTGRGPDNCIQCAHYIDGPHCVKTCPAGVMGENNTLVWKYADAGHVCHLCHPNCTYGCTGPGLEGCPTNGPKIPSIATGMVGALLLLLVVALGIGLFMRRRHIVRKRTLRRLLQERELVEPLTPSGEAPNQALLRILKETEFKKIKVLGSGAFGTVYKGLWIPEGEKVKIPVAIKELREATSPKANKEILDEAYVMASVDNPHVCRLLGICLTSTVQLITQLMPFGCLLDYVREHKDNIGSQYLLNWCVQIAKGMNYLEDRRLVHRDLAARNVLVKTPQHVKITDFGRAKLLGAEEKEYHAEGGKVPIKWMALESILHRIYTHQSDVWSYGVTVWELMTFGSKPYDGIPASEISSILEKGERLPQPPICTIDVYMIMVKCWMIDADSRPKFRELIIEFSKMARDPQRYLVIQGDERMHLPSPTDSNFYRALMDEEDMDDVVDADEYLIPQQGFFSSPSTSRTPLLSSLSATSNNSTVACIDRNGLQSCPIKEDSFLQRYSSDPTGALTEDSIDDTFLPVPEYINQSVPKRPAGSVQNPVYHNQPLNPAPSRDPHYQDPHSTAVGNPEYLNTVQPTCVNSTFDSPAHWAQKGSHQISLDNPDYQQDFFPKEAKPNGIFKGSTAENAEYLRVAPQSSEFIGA
- Procedure Details: EGFR (L858R) degradation analysis, Total EGFR (L858R) HTRF, NCI-H3255 cells
- Format: cell-based
- Condition Info: 6 hours
- Method: NCI-H1975 (harboring EGFR heterozygous T790M/L858R mutations) and NCI-H3255 (harboring EGFR heterozygous L858R mutation) were purchased from ATCC and NCI, respectively. […] Degradation of EGFR protein containing L858R mutation was determined based on quantification of FRET signal using Total EGFR (L858R) HTRF assay kit. […] FRET signal was acquired on EnVision™ Multilabel Reader (PerkinElmer, Santa Clara, CA, USA).
Below, each of the compounds is paired with its reported DC50 value.
Note: unit nM is implicit; provide only the numeric part.

O=C1CC[C@@H](Nc2ccc(C3CCN(CC(=O)N4CCC(Oc5ccc(-c6cc(F)c7c(c6)C(=O)N(C(C(=O)Nc6nccs6)c6ncn8c6CCC8)C7)cc5)CC4)CC3)cc2)C(=O)N1 (some centres unmarked) [Compound 33]; 8

I am curious: what DC50 value has been reported for O=C1CCC(Nc2ccc(C3CCN(CC(=O)N4CCC(Oc5ccc(-c6cc(F)c7c(c6)C(=O)N(C(C(=O)Nc6nccs6)c6ncn8c6CCC8)C7)cc5)CC4)CC3)c(F)c2)C(=O)N1 (centres unmarked) [Compound 35] ? 9

// DC50 lookup, key: Cn1nc(N2CCC(=O)NC2=O)c2ccc(C3CCN(CC(=O)N4CCN(c5ccc(-c6cc(F)c7c(c6)C(=O)N(C(C(=O)Nc6nccs6)c6ncn8c6CCC8)C7)cc5)CC4)CC3)cc21 (centres unmarked) [Compound 17] 6

Look up DC50: Cn1nc(N2CCC(=O)NC2=O)c2ccc(C3CCN(CC(=O)N4CC5(C4)CN(c4ccc(-c6cc(F)c7c(c6)C(=O)N(C(C(=O)Nc6nccs6)c6ncn8c6CCC8)C7)cc4)C5)CC3)cc21 (centres unmarked) [Compound 49] 10

Which DC50 reading was recorded for the compound O=C1CCC(Nc2ccc(C3CCN(CC(=O)N4CCC(Oc5ccc(-c6cc(F)c7c(c6)C(=O)N(C(C(=O)Nc6nccs6)c6ncn8c6CCC8)C7)cc5)CC4)CC3)cc2F)C(=O)N1 (centres unmarked) [Compound 34] ? 13

====

- System: EGFR L858R (NCI-H3255 cells) (Homo sapiens, UniProt P00533, L858R)
- Construct: NCI-H3255 (harboring EGFR heterozygous L858R mutation); host or cells: NCI-H3255
- Procedure Details: EGFR (L858R) degradation analysis, Total EGFR (L858R) HTRF, NCI-H3255 cells
- Assay type: cell-based
- Condition Info: 6 hours
Property: DC50 (nM)
Quick note: give the figure in nM, leave out the unit.

Consider the reported DC50 for these compounds:
O=C1CCC(Nc2ccc(C3CCN(CC(=O)N4CCN(Cc5ccc(-c6cc(F)c7c(c6)C(=O)N(C(C(=O)Nc6nccs6)c6ncn8c6CCC8)C7)cc5)CC4)CC3)c(F)c2)C(=O)N1 (stereo not shown); 11
O=C1CCC(Nc2ccc(C3CCN(CC(=O)N4CCC(NC(=O)c5ccc(C#Cc6cc(F)c7c(c6)C(=O)N(C(C(=O)Nc6nccs6)c6ncn8c6CCC8)C7)cn5)CC4)CC3)cc2)C(=O)N1 (racemic); 8
O=C1CC[C@H](Nc2ccc(C3CCN(CC(=O)N4CCN(c5ccc(-c6cc(F)c7c(c6)C(=O)N(C(C(=O)Nc6nccs6)c6ncn8c6C[C@@H](F)C8)C7)cc5)CC4)CC3)c(F)c2)C(=O)N1 (stereo partly shown); 6
O=C1CCC(Nc2ccc(C3CCN(CC(=O)N4CC5(C4)CN(c4ccc(-c6cc(F)c7c(c6)C(=O)N(C(C(=O)Nc6nccs6)c6ncn8c6CCC8)C7)cc4)C5)CC3)cc2)C(=O)N1 (stereo not shown); 10
O=C1CCC(Nc2ccc(C3CCN(CC(=O)N4CCN(c5ccc(-c6cc(F)c7c(c6)C(=O)N(C(C(=O)Nc6nccs6)c6ncn8c6CCC8)C7)cc5)CC4)CC3)cc2)C(=O)N1 (stereo not shown); 6

What DC50 value was documented for this compound, O=C1CCC(Nc2ccc(C3CCN(CC(=O)N4CCC(c5ccc(-c6cc(F)c7c(c6)C(=O)N(C(C(=O)Nc6nccs6)c6ncn8c6CCC8)C7)cc5)CC4)CC3)cc2)C(=O)N1 (stereo not shown) ? 11

I have this compound here, O=C1CC[C@H](Nc2ccc(C3CCN(CC(=O)N4CC5(C4)CN(c4ccc(-c6cc(F)c7c(c6)C(=O)N(C(C(=O)Nc6ccccn6)c6ncn8c6CCC8)C7)cc4)C5)CC3)c(F)c2)C(=O)N1 (stereo partly shown) , and I need its recorded DC50. 37

Can you look up the measured DC50 of O=C1CC[C@H](Nc2ccc(C3CCN(CC(=O)N4CCN(c5ccc(-c6cc(F)c7cn(C(C(=O)Nc8nccs8)c8ncn9c8CCC9)nc7c6)cn5)CC4)CC3)c(F)c2)C(=O)N1 (stereo partly shown) for me? 34

Look up DC50: O=C1CCC(Nc2ccc(C3CCN(C(=O)CN4CCN(c5ccc(-c6cc(F)c7c(c6)C(=O)N(C(C(=O)Nc6nccs6)c6ncn8c6CCC8)C7)cc5)CC4)CC3)cc2)C(=O)N1 (stereo not shown) 19

Look up DC50: O=C1CC[C@H](Nc2ccc(C3CCN(CC(=O)N4CCN(c5ccc(-c6cc(F)c7c(c6)C(=O)N(C(C(=O)Nc6nccs6)c6ncn8c6CCC8)C7)cc5)CC4)CC3)cc2)C(=O)N1 (stereo partly shown) 7
